- TARGET: GAL4 DBD-CfEcR(DEF)/VP16AD-MmRXRE (Choristoneura fumiferana, UniProt O77240)
- Sequence (O77240 1-513): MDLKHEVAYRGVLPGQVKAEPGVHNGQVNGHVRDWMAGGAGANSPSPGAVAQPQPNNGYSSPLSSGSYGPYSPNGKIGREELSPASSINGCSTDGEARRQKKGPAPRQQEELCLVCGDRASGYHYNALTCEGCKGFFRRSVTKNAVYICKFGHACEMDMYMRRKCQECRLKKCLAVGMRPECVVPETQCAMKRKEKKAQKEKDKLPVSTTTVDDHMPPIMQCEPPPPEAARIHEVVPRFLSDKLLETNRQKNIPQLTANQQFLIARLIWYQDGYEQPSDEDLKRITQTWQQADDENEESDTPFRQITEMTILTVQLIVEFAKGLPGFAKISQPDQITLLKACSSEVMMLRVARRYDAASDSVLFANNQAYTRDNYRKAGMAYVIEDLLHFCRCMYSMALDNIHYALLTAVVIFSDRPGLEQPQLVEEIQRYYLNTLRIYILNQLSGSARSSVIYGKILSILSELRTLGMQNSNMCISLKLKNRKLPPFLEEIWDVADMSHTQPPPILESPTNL
- TEST: cell-based
pEC50: −log10 of the molar value.
# pEC50 listing for each entry below

COMPOUND | pEC50
CCC(CC)(NC(=O)c1cccc(OC)c1C)C(=O)c1ccccc1OC | < 4.48
COc1cccc(C(=O)NC2(C(=O)c3ccc(F)c(C)c3)CCCC2)c1C | 5.35
COc1cccc(C(=O)NC2(C(=O)c3ccccc3C)CCCCC2)c1C | < 4.48
COc1cccc(C(=O)NC(C)(Cc2ccccc2)C(=O)c2cc(C)cc(C)c2)c1C (centres unmarked) | < 4.48
COc1cccc(C(=O)NC(C)(C(=O)c2ccc(F)c(C)c2)C(C)C)c1C (centres unmarked) | < 4.48
COc1cccc(C(=O)NC(C)(C(=O)c2cc(C)cc(C)c2)C(C)C)c1C (centres unmarked) | 5.40
COc1cccc(C(=O)NC2(C(=O)c3cccc(C)c3)CCSCC2)c1C | ~4.70
COc1cccc(C(=O)NC(C)(C(=O)c2cccc(C)c2)C(C)C)c1C (centres unmarked) | < 4.48
CCC(CC)(NC(=O)c1cccc(OC)c1C)C(=O)c1cccc(OC)c1 | < 4.48
COc1cccc(C(=O)NC2(C(=O)c3cccc(C)c3)CCOCC2)c1C | < 4.48
COc1cccc(C(=O)NC2(C(=O)c3cc(F)c(F)c(OC)c3)CCCC2)c1C | 4.75
CCc1c(C(=O)NC2(C(=O)c3ccccc3)CCCC2)ccc2c1OCCO2 | < 4.48
COc1ccc(C(=O)C2(NC(=O)c3cccc(OC)c3C)CCCCC2)c(OC)n1 | 5.42
COc1cccc(C(=O)NC2(C(=O)c3cc(C)cc(C)c3)CCC3(CC2)OCCO3)c1C | < 4.48
